protocolNotes: Half life in ICR mouse at 10 mg/kg, po measured upto 24 hrs by LC-MS/MS analysis
Type: ADME, organism-based
reportedConditions: in vivo
measurementKind: half-life (min)
Numbers only, in min.

Could you tell me which half-life is on file for C=CC(=O)Nc1ccccc1-c1ccc(NC(=O)Cc2ccc(S(=O)(=O)CC)cc2)cc1Cl ?
36.6

Source of measurements: ChEMBL document CHEMBL5537185
